Target: Bromodomain-containing protein 4 (Homo sapiens, UniProt O60885, Y390A)
Assay: Displacement of Alexa Fluor 647 labelled ligand from His6-tagged BRD4 BD1 (1 to 477 residues)/BD2 Y390A mutant (unknown origin) after 30 mins by TR-FRET assay
endpoint: IC50

Query string: Fetch value of IC50 on Bromodomain-containing protein 4 (Homo sapiens, UniProt O60885, Y390A) for O=C(CNC(=O)C1CCCCC1)Nc1ccc(Cl)c(S(=O)(=O)N2CCCCC2)c1 .
Result string: > 50.1 µM

Query string: Quote IC50 with test system Bromodomain-containing protein 4 (Homo sapiens, UniProt O60885, Y390A) for CC1(C2CC2)NC(=O)N(CC(=O)Nc2ccc(Cl)c(S(=O)(=O)N3CCCCC3)c2)C1=O (stereo in doubt; 18)
Result string: 10 µM

Query string: Jot down IC50 (Bromodomain-containing protein 4 (Homo sapiens, UniProt O60885, Y390A)) of Cc1ccccc1C(=O)NCC(=O)Nc1ccc(C)c(S(=O)(=O)N2CCCCCC2)c1 .
Result string: > 50.1 µM

Query string: Return reported IC50 for target or system Bromodomain-containing protein 4 (Homo sapiens, UniProt O60885, Y390A), item CCN(CC)S(=O)(=O)c1cc(NC(=O)CN2C(=O)NC(C)(c3ccccc3)C2=O)ccc1C (centres undefined) .
Result string: > 501 µM

Query string: State measured IC50 of the compound CSCCC1NC(=O)N(CC(=O)Nc2ccc(Cl)c(S(=O)(=O)N3CCOCC3)c2)C1=O (centres undefined) with Bromodomain-containing protein 4 (Homo sapiens, UniProt O60885, Y390A).
Result string: > 50.1 µM

Query string: Provide Bromodomain-containing protein 4 (Homo sapiens, UniProt O60885, Y390A) IC50 reading for Cc1ccc(NC(=O)CN2C(=O)NC(Cc3ccccc3)C2=O)cc1S(=O)(=O)N1CCCCC1 (centres undefined) .
Result string: > 50.1 µM

Query string: Param request: IC50 | system Bromodomain-containing protein 4 (Homo sapiens, UniProt O60885, Y390A) | item O=C(CCNC(=O)c1ccccc1)Nc1ccc(Cl)c(S(=O)(=O)N2CCCCC2)c1
Result string: > 50.1 µM

Query string: Report its IC50 with Bromodomain-containing protein 4 (Homo sapiens, UniProt O60885, Y390A) as the test system: CC1CCCN(S(=O)(=O)c2cc(NC(=O)CN3C(=O)CNC3=O)ccc2Br)C1 (centres undefined)
Result string: > 50.1 µM

Query string: Quote IC50 with test system Bromodomain-containing protein 4 (Homo sapiens, UniProt O60885, Y390A) for Cc1ccc(NC(=O)CN2C(=O)CN(C)C2=O)cc1S(=O)(=O)N1CCCCC1
Result string: > 501 µM
